# method: Maximum estimated dietary exposure to media ingredients per 100 g serving
# particulars: assumption of complete transfer of media components to the finished product on a wt/wt basis
measurement-label: Maximum Estimated Exposure per 100 g serving (mg)

{"compound": "O.O.O.O.O.O.O.O=S(=O)([O-])[O-].[Fe+2] [FERROUS SULFATE-7H2O]", "observed-result": 2.5}
{"compound": "Cc1ncc(CO)c(CO)c1O.Cl [PYRIDOXINE-HCL]", "observed-result": 25}
{"compound": "[Cl-].[K+] [POTASSIUM CHLORIDE]", "observed-result": 4000}
{"compound": "[Cl-].[Cl-].[Mg+2] [MAGNESIUM CHLORIDE (ANHY)]", "observed-result": 170}

Data credit: patent US20240074473A1
